- Test system: metabolism of retinoic acid in human breast cancer cells
- method_description: Inhibition of retinoic acid (RA) metabolism (Example C.1)
- Format: cell-based
- measurement_context: MCF-7 human breast cancer cells, 3H-RA as substrate; concentration needed to reduce the amount of metabolites to 50% of the control
Examples of compounds with documented pIC50 follow.
// pIC50 is dimensionless: -log10 of concentration (M)

Record excerpt, results attached:
# compound, pIC50
data = [
    ("CCC(=O)Nc1ccc(C(C(C)C)n2ccnc2)cc1 (racemic)", 8.63),
    ("CC(C)C(c1ccc(NC(=S)Nc2ccccc2)cc1)n1ccnc1 (racemic)", 7.77),
    ("CC(C)C(c1ccc(NC(=O)Cc2ccc(Cl)c(Cl)c2)cc1)n1ccnc1 (centres unmarked)", 8.39),
    ("CC(C)C(c1ccc(NC(=O)C(=Cc2ccccc2)C2CCCC2)cc1)n1ccnc1 (racemic)", 7.02),
    ("CC(C)C(c1ccc(NC(=O)Nc2cc(F)ccc2F)cc1)n1ccnc1 (racemic)", 8.85),
    ("CCC(CC)C(c1ccc(NC(=O)Cc2cccc(O)c2)cc1)n1ccnc1 (centres unmarked) [Compound 780]", 8.34),
    ("CCC(CC)C(c1ccc(NC(=O)Cc2ccc(N(C)C)cc2)cc1)n1ccnc1 (racemic)", 8.24),
]

Okay, now this compound:
Look at this compound and give its reported pIC50. CCOc1ccc(CC(=O)Nc2ccc(C(C(C)C)n3ccnc3)cc2)cc1 (racemic)
8.71
